test system: IMP-1 producing Pseudomonas aeruginosa strain PAO1/pMS363; format: cell-based; details: no inhibitor, in µg/mL
Test Readout: MIC of β-lactam drugs, β-lactam alone
In your answer, state the number alone without any accompanying words.

# Molecule, Study Target, MIC of β-lactam drugs, β-lactam alone
rows = [
    ("CO/N=C(\\C(=O)N[C@@H]1C(=O)N2C(C(=O)[O-])=C(C[N+]3(C)CCCC3)CS[C@H]12)c1csc(N)n1 [CFPM, cefepime]", "IMP-1 producing Pseudomonas aeruginosa strain PAO1/pMS363", 2048),
    ("C[C@@H](O)[C@H]1C(=O)N2C(C(=O)O)=C(S[C@@H]3CN[C@H](CNS(N)(=O)=O)C3)[C@H](C)[C@H]12 [DRPM, doripenem]", "IMP-1 producing Pseudomonas aeruginosa strain PAO1/pMS363", 128),
]

Please turn your attention to the following entry.
Exercise: What measured MIC of β-lactam drugs, β-lactam alone goes with CC(C)(O/N=C(\C(=O)N[C@@H]1C(=O)N2C(C(=O)[O-])=C(C[n+]3ccccc3)CS[C@H]12)c1csc(N)n1)C(=O)O [CAZ, ceftadizime] ?
Key: 2048

----------
biological target: IMP-1 (Serratia marcescens); construct: The total length of IMP-1 as a metallo-β-lactamase was amplified by PCR; His tag (C); assay: biochemical; details: nitrocefin 100 μM, IMP-1 1 nM, ZnSO4 100 μM, 50 mM HEPES pH 7.5, room temperature 20 min; read-out: IC50 of each inhibitor against IMP-1
Sequence (P52699 19-246 limits assumed): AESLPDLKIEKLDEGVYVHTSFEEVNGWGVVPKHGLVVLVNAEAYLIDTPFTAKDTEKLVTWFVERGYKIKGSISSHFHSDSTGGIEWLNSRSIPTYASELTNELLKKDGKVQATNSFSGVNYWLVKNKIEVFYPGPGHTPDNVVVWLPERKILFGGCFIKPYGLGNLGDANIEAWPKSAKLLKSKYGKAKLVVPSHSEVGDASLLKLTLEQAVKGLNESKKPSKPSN
pIC50: −log10 of the molar value.
Values of pIC50 greater than or equal to 6 map to YES; values below map to NO.

Some solved cases for reference:
# Molecule, Category Label
data = [
    ("CC(C)/C(C(=O)O)=C(/C(=O)O)C1CCCCC1 [Example 43, disodium]", "YES"),
    ("C/C(C(=O)O)=C(/C(=O)O)C(C)C [Example 22, 2-isopropyl-3-methylmaleic acid disodium]", "NO"),
    ("CC(C)/C(C(=O)O)=C(/C(=O)O)C1CCOCC1 [Example 51, disodium]", "NO"),
    ("CC/C(C(=O)O)=C(\\Cc1ccccc1)C(=O)O [Example 11, 2-benzyl-3-ethylmaleic acid disodium]", "YES"),
    ("CC(C)/C(C(=O)O)=C(\\Cc1cccnc1)C(=O)O [Example 54, disodium]", "NO"),
]

Exercise: Record CC(C)/C(C(=O)O)=C(\Cc1ccc(O)cc1)C(=O)O ; criterion: pIC50 no lower than 6. Met?
Key: YES

----------
target: UniProtKB Q5U7L7
Test Readout: pIC50
On this scale, pIC50 is minus log10 of a concentration expressed in M (mol/L).

Completed entries (count: 8):
# Molecule, Test Readout, Data Value
records = [
    ("CC(C)/C(C(=O)O)=C(\\Cc1cccnc1)C(=O)O [Example 54, disodium]", "pIC50", 5.28),
    ("CC(C)/C(C(=O)O)=C(/C(=O)O)C1CCCCC1 [Example 43, disodium]", "pIC50", 6.80),
    ("CC/C(C(=O)O)=C(\\Cc1ccccc1)C(=O)O [Example 11, 2-benzyl-3-ethylmaleic acid disodium]", "pIC50", 5.52),
    ("CC(C)/C(C(=O)O)=C(\\Cc1ccc(O)cc1)C(=O)O", "pIC50", 5.72),
    ("CC(C)/C(C(=O)O)=C(\\Cc1ccc(C(N)=O)cc1)C(=O)O [Example 72, disodium]", "pIC50", 6.22),
    ("CC(C)/C(C(=O)O)=C(/C(=O)O)C1CCOCC1 [Example 51, disodium]", "pIC50", 5.74),
    ("CC(C)/C(C(=O)O)=C(\\Cc1ccc(OCCN)cc1)C(=O)O [Example 92, disodium]", "pIC50", 6.52),
    ("C/C(C(=O)O)=C(/C(=O)O)C(C)C [Example 22, 2-isopropyl-3-methylmaleic acid disodium]", "pIC50", 5.14),
]

Exercise: Form field - read-out: pIC50; system: UniProtKB Q5U7L7; submitted item: CC/C(C(=O)O)=C(\SC(C)C)C(=O)O [Example 66, disodium]
Key: 4.85
